Exercise: state measured log10 EC50 for each of the molecules provided.
System: EMT6
Experiment: Drug concentration required to achieve 50% kill of EMT6 cells under oxygenated conditions.
Type: functional
Details: Mus musculus, read-out: ED50 (the source's name)
All values: log10 EC50 [µg/mL].

O=[N+]([O-])c1ccccc1CCl	0.08

Give one value of log10 EC50 per listed molecule.
1. O=[N+]([O-])c1ccccc1CO
2. O=[N+]([O-])c1ccc(CO)cc1
3. O=[N+]([O-])c1ccc(CCl)cc1
4. O=C(NCCCl)OCc1ccc([N+](=O)[O-])cc1

0.48
0.41
-0.85
1.49

Please look at the items below and tell me log10 EC50 for each one, in order.
1. O=C(NCCCl)OCc1ccccc1[N+](=O)[O-]
2. CNC(=O)OCc1ccccc1[N+](=O)[O-]
3. O=[N+]([O-])c1ccccc1CBr
4. O=C(Nc1ccccc1)OCc1ccc([N+](=O)[O-])cc1
5. O=[N+]([O-])c1ccc(CBr)cc1
6. CNC(=O)OCc1ccc([N+](=O)[O-])cc1

[1.72, 0.55, 0.18, -0.66, -1.00, -0.20]

Which measured log10 EC50 value corresponds to `O=C(Nc1ccccc1)OCc1ccccc1[N+](=O)[O-]` ?
0.83

Source: ChEMBL document CHEMBL1121500
